Recorded values, source patent US20240041042A1.

# Lookup of reported Post-emergence action against BRSNW in % keyed by entry
Tested on: Brassica napus (BRSNW)
Assay: Post-emergence crop plant compatibility, BRSNW
Assay type: in vivo
Conditions: 20 g/ha, effect in comparison to untreated controls
measuredParameter: Post-emergence action against BRSNW in % (%)

INSERT INTO measurements (compound, endpointvalue) VALUES
  ('COC(=O)CN(C)C(=O)COc1nn(-c2ccnc(Cl)c2)c(-c2ccc(F)nc2)c1Br', 0),
  ('CCOC(=O)CCNC(=O)COc1nn(-c2ncccc2F)c(-c2ccc(OC)nc2)c1Br', 10),
  ('CCOC(=O)C1CCN(C(=O)COc2nn(-c3ccccn3)c(-c3ccc(F)nc3)c2Br)CC1', 0),
  ('O=C(COc1nn(-c2ncccc2F)c(-c2ccc(F)nc2)c1C1CC1)OCC1CCOC1 (stereo not drawn)', 20),
  ('COC(=O)C1CCCN1C(=O)COc1nn(-c2ccccn2)c(-c2ccc(F)nc2)c1Br (stereo not drawn)', 10),
  ('O=C(COc1nn(-c2ccnc(Cl)c2)c(-c2ccc(F)nc2)c1Br)NS(=O)(=O)CC(F)(F)F', 0),
  ('COC(=O)CNC(=O)COc1nn(-c2cccnc2C)c(-c2cncc(F)c2)c1Br', 0),
  ('COC(=O)CNC(=O)COc1nn(-c2ccccn2)c(-c2ccc(F)nc2)c1C1CC1', 20),
  ('COC(=O)C1CCCN(C(=O)COc2nn(-c3ccccn3)c(-c3ccc(F)nc3)c2Br)C1 (stereo not drawn)', 10),
  ('C[C@@H](Oc1nn(-c2ncccc2F)c(-c2ccc(F)nc2)c1Br)C(=O)O', 10),
  ('COC(=O)C1CCN(C(=O)COc2nn(-c3ccccn3)c(-c3ccc(F)nc3)c2Br)C1 (stereo not drawn)', 0),
  ('CCOC(=O)COc1nn(-c2ncccc2F)c(-c2ccc(F)nc2)c1I', 0);
